- assayed-system: human truncated cGAS enzyme (147-522 human cGAS) (Homo sapiens (Human), UniProt Q8N884)
- Sequence (Q8N884 147-522): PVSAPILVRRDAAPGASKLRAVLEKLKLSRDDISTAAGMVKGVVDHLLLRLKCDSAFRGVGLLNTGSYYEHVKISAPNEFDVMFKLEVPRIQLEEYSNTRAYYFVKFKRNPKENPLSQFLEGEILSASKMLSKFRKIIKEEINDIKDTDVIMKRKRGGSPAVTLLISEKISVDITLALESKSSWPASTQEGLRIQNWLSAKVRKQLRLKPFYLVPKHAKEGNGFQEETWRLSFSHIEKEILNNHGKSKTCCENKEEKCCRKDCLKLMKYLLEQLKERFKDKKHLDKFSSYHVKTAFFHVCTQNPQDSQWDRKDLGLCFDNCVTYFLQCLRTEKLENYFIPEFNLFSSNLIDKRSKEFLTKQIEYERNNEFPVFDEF
- assay-remarks: Quantification of cGAS protein inhibition (cGAMP formation measured by LC-MS/MS)
- Assay type: biochemical
- cond: reported for the potential mixture in solution of co-existing tautomers and/or racemates
Examples of compounds with documented pIC50 follow.
Note on units: pIC50 is unitless, being -log10 of a concentration expressed in mol/L.

compound: CNC(C)c1nnc(-c2c(-n3ccnc3)c3cc(OC)c(Cl)c(F)c3n2C)[nH]1 (stereo not shown)
pIC50: 6.92
--
compound: COc1cc2c(-n3ccnc3)c(-c3nnc(C(C)=O)[nH]3)n(C)c2c(F)c1Cl
pIC50: 6.97
--
compound: COCCNC(C)c1nnc(-c2c(-n3ccnc3)c3cc(OC)c(Cl)c(F)c3n2C)[nH]1 (stereo not shown)
pIC50: 6.12

Attention now shifts to the item below.
**Query** Could you share what pIC50 was measured for COc1cc2c(-n3ccnc3)c(-c3nnc(CCO)[nH]3)n(C)c2cc1Cl , tested on human truncated cGAS enzyme (147-522 human cGAS) (Homo sapiens (Human), UniProt Q8N884)?
**Result** 6.00
